- TARGET_OF_ASSAY: hA3AR (Homo sapiens (Human))
- METHOD_NOTES: FCM competitive binding in whole CHO cells using MRS5449 as tracer
- DETAILS: whole CHO cells expressing hA3AR; 5 nM MRS5449 tracer; 90 min at 37° C.
pKi: −log10 of the molar value. Structures can show the parent of a compound that is named as a salt.
Measured pKi, listed per entry.
PARAMETER_MEASURED: pKi

> print(dat)
                                   compound  parameter.measured  reported.measurement
1  CCC1CN2C(=O)N(C)c3nc(-c4cc(Cl)cc(Cl)c4Cl)[nH]c3C2=N1 (stereo not shown) [PSB-10, monohydrochloride]                 pKi                  8.02
2  Nc1nc(NCCc2ccc(O)cc2)nc2nc(-c3ccco3)nn12                 pKi                  6.52
3        Nc1nc2ccc(Cl)cc2c2nc(-c3ccco3)nn12                 pKi                  7.79
4  OC[C@H]1O[C@@H](n2cnc3c(NC4CCCC4)ncnc32)[C@H](O)[C@@H]1O                 pKi                  5.83

---

Reported Ki by item:
- TARGET_OF_ASSAY: hA3AR (Homo sapiens (Human), UniProt P0DMS8)
- Sequence (P0DMS8 whole entry): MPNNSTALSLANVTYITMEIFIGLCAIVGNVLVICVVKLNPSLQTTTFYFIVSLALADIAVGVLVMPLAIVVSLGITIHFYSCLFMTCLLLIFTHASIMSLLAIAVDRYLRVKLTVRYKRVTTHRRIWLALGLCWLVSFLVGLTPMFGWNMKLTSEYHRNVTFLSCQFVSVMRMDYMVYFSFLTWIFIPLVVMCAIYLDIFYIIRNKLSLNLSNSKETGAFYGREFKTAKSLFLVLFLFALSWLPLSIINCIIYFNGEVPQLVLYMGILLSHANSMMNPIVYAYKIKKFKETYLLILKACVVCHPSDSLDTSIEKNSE
- METHOD_NOTES: Radioligand membrane binding assay at hA3AR ([125I]I-AB-MECA)
- DETAILS: Table 3; read-out: A3 Ki

MOLECULE	Ki (nM)
C#CCCCCC(=O)Nc1nc2nn(C)cc2c2nc(-c3ccco3)nn12	7.26
Cn1cc2c(nc(NC(=O)Nc3ccc(CC(=O)NCCCN)cc3)n3nc(-c4ccco4)nc23)n1.O=C(O)C(F)(F)F [Compound 17, trifluoroacetate salt]	8.06
Cn1cc2c(nc(NC(=O)Nc3ccc(CC(=O)NCCCCCNC(=O)OC(C)(C)C)cc3)n3nc(-c4ccco4)nc23)n1	4.47
Cn1cc2c(nc(NC(=O)Nc3ccc(CC(=O)NCCCNC(=O)OC(C)(C)C)cc3)n3nc(-c4ccco4)nc23)n1	2.75
Cn1cc2c(nc(NC(=O)Nc3ccc(CC(=O)NCCCCN)cc3)n3nc(-c4ccco4)nc23)n1.O=C(O)C(F)(F)F [Compound 18, trifluoroacetate salt]	6
Cn1cc2c(nc(NC(=O)Nc3ccc(CC(=O)O)cc3)n3nc(-c4ccco4)nc23)n1	128
Cn1cc2c(nc(NC(=O)Nc3ccc(CC(=O)NCCCOCCOCCOCCCNC(=O)OC(C)(C)C)cc3)n3nc(-c4ccco4)nc23)n1	82.4
Cn1cc2c(nc(NC(=O)CCCc3cn(CCCCCCNC(=O)c4ccc(-c5c6ccc(=N)c(S(=O)(=O)O)c-6oc6c(S(=O)(=O)O)c(N)ccc56)c(C(=O)O)c4)nn3)n3nc(-c4ccco4)nc23)n1	31.8
Cn1cc2c(nc(NC(=O)Nc3ccc(CC(=O)NCCCNC(=S)Nc4ccc5c(c4)C(=O)OC54c5ccc(O)cc5Oc5cc(O)ccc54)cc3)n3nc(-c4ccco4)nc23)n1	104

---

- TARGET_OF_ASSAY: hA3AR (Homo sapiens (Human))
- METHOD_NOTES: Radioligand membrane binding assay at hA3AR ([125I]I-AB-MECA)
- DETAILS: Table 3; read-out: A3 Ki
- Protocol: For cell cultures used in radioligand binding assays, after harvest and homogenization, the cells were centrifuged at 200×g for 10 min, and the pellet was re-suspended in 50 mM Tris-HCl buffer (pH 7.5), containing 10 mM MgCl2. The suspension was homogenized with an electric homogenizer for 10 s and was then re-centrifuged at 20,000×g for 20 min at 4° C. […] The protein concentration was measured using the Bradford assay. […]
Ki values, listed per item
PARAMETER_MEASURED: Ki (nM)

COMPOUND	TARGET_OF_ASSAY	MEASUREMENT_UNITS	REPORTED_MEASUREMENT
Cn1cc2c(nc(NC(=O)Nc3ccc(CC(=O)NCCOCCOCCN)cc3)n3nc(-c4ccco4)nc23)n1.O=C(O)C(F)(F)F [Compound 20, trifluoroacetate salt]	hA3AR (Homo sapiens (Human))	nM	19.2
C#CCCC(=O)Nc1nc2nn(C)cc2c2nc(-c3ccco3)nn12 [Compound 36]	hA3AR (Homo sapiens (Human))	nM	11
C#CCCCC(=O)Nc1nc2nn(C)cc2c2nc(-c3ccco3)nn12 [Compound 37]	hA3AR (Homo sapiens (Human))	nM	4.11
Cn1cc2c(nc(NC(=O)Nc3ccc(CC(=O)NCCCOCCOCCOCCCN)cc3)n3nc(-c4ccco4)nc23)n1.O=C(O)C(F)(F)F [Compound 21, trifluoroacetate salt]	hA3AR (Homo sapiens (Human))	nM	10.3
Cn1cc2c(nc(NC(=O)Nc3ccc(CC(=O)NCCCCNC(=S)Nc4ccc5c(c4)C(=O)OC54c5ccc(O)cc5Oc5cc(O)ccc54)cc3)n3nc(-c4ccco4)nc23)n1 [Compound 23]	hA3AR (Homo sapiens (Human))	nM	73.6
Cn1cc2c(nc(NC(=O)Nc3ccc(CC(=O)NCCCCCNC(=S)Nc4ccc5c(c4)C(=O)OC54c5ccc(O)cc5Oc5cc(O)ccc54)cc3)n3nc(-c4ccco4)nc23)n1 [Compound 24]	hA3AR (Homo sapiens (Human))	nM	96.7
